Provenance of the data: the supplement of paper PMC9170038

system: MS2 coat protein; assay: apparent KD of MS2 coat protein; designed switch direction (-1 OFF switch, 1 ON switch): -1; higher = weaker reporter binding; details: input ligand: none
Label Satisfied when apparent KD of MS2 coat protein is at or above 0.06 µM; otherwise label Not satisfied.

Past entries and their recorded results:
{"item sequence": "AUGUUGCGAGGAUAUAUAUGGAGGUUAAAAUUUGAUAUGGAACAUGAGGAUCACCCAUGUAGAAGGUGCAUAAC [JR_Ex2_Sub039] (Eterna round: R97, puzzle: Exclusion 2)", "target desc": "MS2 coat protein", "discrete label": "Not satisfied"}
{"item sequence": "GUAGAGUCAGGAUAUACAAGAUCGAUAGAUCGGCGAUCCAUACAUGAGGAUCACCCAUGUAGAAGGGACUCUAC [Mat - Exclusion 2 - Eli Mod - D3] (Eterna round: R97, puzzle: Exclusion 2)", "target desc": "MS2 coat protein", "discrete label": "Not satisfied"}
{"item sequence": "AGAUUGAAUGAGGAUAUCGUUGCGGGUACGUAGCGAGAAGGCAUGACAUGAGGAUCACCCAUGUAGUGUGGGUU [JR_Ex6_Sub019] (Eterna round: R97, puzzle: Exclusion 6)", "target desc": "MS2 coat protein", "discrete label": "Satisfied"}
{"item sequence": "UAUUUGCAAGCGAGAUCCCACAUGAGGAUCACCCAUGUUCUUUGAAAGUACAGAAUUACUGUACAAGCUCGUCUUAU [Winner reversed engineered 31] (Eterna round: R97, puzzle: Sensor, turn-off variant 1)", "target desc": "MS2 coat protein", "discrete label": "Satisfied"}

// switching to the query sequence
Dear colleague, could you confirm whether AAGUAGUCUGUGAGGAUAUUGGUGGAAUGACACAUUAAGAAGGUACAUGAGGAUCACCCAUGUGGGUAAAGACG [Brourd's EX4 #24] (Eterna round: R97, puzzle: Brourd's mod of Exclusion 4) has apparent KD of MS2 coat protein at or above 0.06 µM?
Satisfied
